Multi-source literature compilation: pKi on UniProt:P56817.
pKi: −log10 of the molar value.
quantity.name: pKi

molecule.smiles: Cc1nc(N2C[C@H]3C(=O)N(C)C(=N)N[C@@]3(c3cccc(C#N)c3)C2)nc(C2CC2)c1F
assayed.target: UniProt:P56817
quantity.name: pKi
qualifier.operator: =
measurement: 7.37
--
molecule.smiles: CN1C(=N)N[C@](C)(c2sc3c(-c4ccc(-c5cncs5)cc4F)nccc3c2Cl)CS1(=O)=O
assayed.target: UniProt:P56817
quantity.name: pKi
qualifier.operator: =
measurement: 6.98
--
molecule.smiles: CN1C(=N)N[C@](C)(c2sc(-c3cncc(-c4ncco4)c3)cc2F)CS1(=O)=O
assayed.target: UniProt:P56817
quantity.name: pKi
qualifier.operator: =
measurement: 7.80
--
molecule.smiles: COc1ccc(C(=O)Nc2ccc(F)c([C@@]3(C)NC(=N)N(C)S(=O)(=O)[C@@]34CCN(Cc3ccccn3)C4)c2)nc1
assayed.target: UniProt:P56817
quantity.name: pKi
qualifier.operator: =
measurement: 8.70
--
molecule.smiles: [2H]C([2H])([2H])Oc1cnc(C(=O)Nc2ccc(F)c([C@@]3(C)N=C(N)[C@@](C)(F)C[C@@H]3F)c2)cn1
assayed.target: UniProt:P56817
quantity.name: pKi
qualifier.operator: =
measurement: 7.68
--
molecule.smiles: CN1C(=N)N[C@](C)(c2sc(-c3nnc(-c4ccc(F)cc4)o3)cc2Cl)CS1(=O)=O
assayed.target: UniProt:P56817
quantity.name: pKi
qualifier.operator: =
measurement: 7.18
--
molecule.smiles: C[C@@]1(F)C[C@]2(F)COC[C@]2(c2cc(NC(=O)c3ccc(F)cn3)ccc2F)N=C1N
assayed.target: UniProt:P56817
quantity.name: pKi
qualifier.operator: =
measurement: 7.62
--
molecule.smiles: O=C(Nc1cc(F)c(Br)cc1N1CCNCC1)c1cccc2ccccc12
assayed.target: UniProt:P56817
quantity.name: pKi
qualifier.operator: <
measurement: 4.52
--
molecule.smiles: CC1(C)C(=N)N[C@@]2(COCc3ccc(NC(=O)c4ccn(C(F)F)n4)cc32)CS1(=O)=O
assayed.target: UniProt:P56817
quantity.name: pKi
qualifier.operator: =
measurement: 7.92
--
molecule.smiles: COc1cnc(C(=O)Nc2cc(F)c(F)c([C@]34COC[C@H]3C[C@](F)(CF)C(N)=N4)c2)cn1
assayed.target: UniProt:P56817
quantity.name: pKi
qualifier.operator: =
measurement: 6.96
--
molecule.smiles: CN1C[C@@](C)(c2cc(NC(=O)c3ccc(F)cn3)ccc2F)NC(=N)C(C)(C)S1(=O)=O
assayed.target: UniProt:P56817
quantity.name: pKi
qualifier.operator: =
measurement: 7.27
--
molecule.smiles: CN1C(=N)N[C@](C)(c2sc(-c3ccc(C4=NCCO4)[nH]3)cc2Cl)CS1(=O)=O
assayed.target: UniProt:P56817
quantity.name: pKi
qualifier.operator: =
measurement: 6.57
